Target: T1, human GIP receptor (human) (UniProt P48546)
T1 sequence (looked up): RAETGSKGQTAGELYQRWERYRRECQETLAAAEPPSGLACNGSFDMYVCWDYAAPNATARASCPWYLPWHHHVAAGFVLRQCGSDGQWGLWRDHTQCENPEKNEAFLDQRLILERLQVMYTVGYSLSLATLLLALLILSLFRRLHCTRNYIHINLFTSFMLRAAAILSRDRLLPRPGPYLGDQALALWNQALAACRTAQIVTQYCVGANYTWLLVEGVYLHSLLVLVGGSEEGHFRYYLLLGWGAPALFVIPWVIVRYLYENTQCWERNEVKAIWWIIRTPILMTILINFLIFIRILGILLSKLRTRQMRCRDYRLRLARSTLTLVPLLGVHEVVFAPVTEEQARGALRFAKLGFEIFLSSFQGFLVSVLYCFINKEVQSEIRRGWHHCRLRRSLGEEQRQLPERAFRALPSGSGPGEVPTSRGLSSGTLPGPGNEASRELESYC
Test: cell-based or functional assay
Kindly state Relative cAMP EC50, nM (0.1% casein) for each of the entries shown.
Numbers only, in nM.

YXQGTFTSDFSXXLDKKAQXAFIEYLLEAGPSSGEPPPSGQ (Aib, Orn, alpha-methyl-Leu, D-Ala, lipidated Lys, amide; synthetic construct; SITE 2: note = 2-Aminoisobutyric Acid; SITE 12: note = L-ornithine; SITE 13: note = alpha-methyl-leucine; SITE 17: note = Lysine is chemically modified through conjugation of the epsilon-amino group of the Lysine side chain with (2-[2-(2-Amino-ethoxy)-ethoxy]-acetyl)2-(gamma-Glu)) [Example 157] | 0.183

Would you mind listing Relative cAMP EC50, nM (0.1% casein) for each of the following binders?
1. YXQGTFTSDFSXXLDKKAQXAFIEYLLEXGHSSGAPPPSGT (Aib, Orn, alpha-methyl-Leu, lipidated Lys, C-terminal amide; synthetic construct; SITE 2: note = 2-Aminoisobutyric Acid; SITE 12: note = L-ornithine; SITE 13: note = alpha-methyl-leucine; SITE 17: note = Lysine is chemically modified through conjugation of the epsilon-amino group of the Lysine side chain with (2-[2-(2-Amino-ethoxy)-ethoxy]-acetyl)2-(gamma-Glu)) [Example 182]
2. YXQGTFTSDXSXXLDKKAQXAFIEYLLEXGPSSGAPPPSGS (Aib, F(4CN), Orn, αMeL; lipidated Lys; C-terminal amide; synthetic construct; SITE 2: note = 2-Aminoisobutyric Acid; SITE 10: note = 4-cyano-L-phenylalanine; SITE 12: note = L-ornithine; SITE 13: note = alpha-methyl-leucine; SITE 17: note = Lysine is chemically modified through conjugation of the epsilon-amino group of the Lysine side chain with (2-[2-(2-) [Example 178]
3. YXQGTFTSDFSXXLDKKAQXAFIEYLLAGGPSSGEPPPEGS (Aib, Orn, αMeL; acylated Lys (AEEA-γGlu-C18 diacid); C-terminal amide; synthetic construct; SITE 2: note = 2-Aminoisobutyric Acid; SITE 12: note = L-ornithine; SITE 13: note = alpha-methyl-leucine; SITE 17: note = Lysine is chemically modified through conjugation of the epsilon-amino group of the Lysine side chain with (2-[2-(2-Amino-ethoxy)-ethoxy]-acetyl)-(gamma-Glu)) [Example 152]

(A)
[0.0781, 0.34, 0.259]

Hey, can you go through the list below and give me Relative cAMP EC50, nM (0.1% casein) for every item?
1. YXQGTXTSDXXEXLDXKAQXXFIEXLIEGGPSSGEPPPE (synthetic construct; SITE 2: note = 2-Aminoisobutyric Acid; SITE 6: note = alpha-methyl-2-fluoro-L-phenylalanine; SITE 10: note = 3-(4-Pyridyl)-L-alanine; SITE 11: note = alpha-methyl-L-serine; SITE 13: note = alpha-methyl-leucine; SITE 16: note = L-ornithine; SITE 17: note = Lysine is chemically mo) [Example 447]
2. YXQGTXTSDXSIXLDXKAQXAFIEYLEEGGPSSGEPPPS (synthetic construct; SITE 2: note = 2-Aminoisobutyric Acid; SITE 6: note = alpha-methyl-2-fluoro-L-phenylalanine; SITE 10: note = 3-(4-Pyridyl)-L-alanine; SITE 13: note = alpha-methyl-leucine; SITE 16: note = L-ornithine; SITE 17: note = Lysine is chemically modified through conjugation of the epsil) [Example 486]
3. YXQGTXTSDXXIXLDXKAQXTFIEXLIEGGPSSGEPPPE (synthetic construct; SITE 2: note = 2-Aminoisobutyric Acid; SITE 6: note = alpha-methyl-2-fluoro-L-phenylalanine; SITE 10: note = 3-(4-Pyridyl)-L-alanine; SITE 11: note = alpha-methyl-L-serine; SITE 13: note = alpha-methyl-leucine; SITE 16: note = L-ornithine; SITE 17: note = Lysine is chemically mo) [Example 457]
4. YXQGTXTSDXXILLDKKAQXAFIEYLEEGGPSSGAPPPE (synthetic construct; SITE 2: note = 2-Aminoisobutyric Acid; SITE 6: note = alpha-methyl-2-fluoro-L-phenylalanine; SITE 10: note = 3-(4-Pyridyl)-L-alanine; SITE 11: note = alpha-methyl-L-serine; SITE 17: note = Lysine is chemically modified through conjugation of the epsilon-amino group of the Lysine) [Example 464]
5. YXQGTFTSDFSXXLDKKAQXAFIEWLLEGGHSSGAPPPSGE (acylated Lys, C-terminal amide, non-natural residues; synthetic construct; SITE 2: note = 2-Aminoisobutyric Acid; SITE 12: note = L-ornithine; SITE 13: note = alpha-methyl-leucine; SITE 17: note = Lysine is chemically modified through conjugation of the epsilon-amino group of the Lysine side chain with (2-[2-(2-Amino-ethoxy)-ethoxy]-acetyl)2-(gamma-Glu)) [Example 169]
6. YXQGTFTSDXSXXLDKKAQXAFIEYLLAGGPSSGEPPPSGS (Aib, 4Pal, Orn, αMeL; lipidated Lys; C-terminal amide; synthetic construct; SITE 2: note = 2-Aminoisobutyric Acid; SITE 10: note = 3-(4-Pyridyl)-L-alanine; SITE 12: note = L-ornithine; SITE 13: note = alpha-methyl-leucine; SITE 17: note = Lysine is chemically modified through conjugation of the epsilon-amino group of the Lysine side chain with (2-[2-(2-) [Example 154]
7. HXQGTXTSDXXIXLDXKAQXAFIEYLLEGGPSSGEPEPE (synthetic construct; SITE 2: note = 2-Aminoisobutyric Acid; SITE 6: note = alpha-methyl-2-fluoro-L-phenylalanine; SITE 10: note = 3-(4-Pyridyl)-L-alanine; SITE 11: note = alpha-methyl-L-serine; SITE 13: note = alpha-methyl-leucine; SITE 16: note = L-ornithine; SITE 17: note = Lysine is chemically mo) [Example 479]

(A)
1. 0.0177
2. 0.0262
3. 0.00918
4. 0.072
5. 0.209
6. 0.227
7. 0.0905

(Q) Fill blank: measured Relative cAMP EC50, nM (0.1% casein) of the binder YXQGTXTSDXXIXLDXKAQXNFIEXLIEGGPSSGEPEPSEG (synthetic construct; SITE 2: note = 2-Aminoisobutyric Acid; SITE 6: note = alpha-methyl-2-fluoro-L-phenylalanine; SITE 10: note = 3-(4-Pyridyl)-L-alanine; SITE 11: note = alpha-methyl-L-serine; SITE 13: note = alpha-methyl-leucine; SITE 16: note = L-ornithine; SITE 17: note = Lysine is chemically mo) [Example 473] is ____.
(A) 0.0101
